Tested on: RPMI-8226 leukemia
Assay: NCI-60 one-dose screen, 48 h
Conditions: 10 µM unless noted
This is part of a sample that, as a whole, favours compounds with a hit. Of some 83,000 tested, about 20% had one in any assay. Active and inactive are the calls of the source. How the source made its calls: active means growth percent below 10; inactive means the rest.
Respond with a class label; see Y for active, N for inactive

# compound, discrete.label
data = [
    ("Clc1ccc(-c2csc(N/N=C/c3nc4ccccc4n3C3CC3)n2)cc1", "N"),
    ("CCOC(=O)c1c(Nc2ccccc2)nn2c(-c3ccc(Br)cc3)ccnc12", "N"),
    ("CCOC(=O)/C(F)=C/C1CC1C1CCCCC1 (centres undefined)", "N"),
]

Field: outcome | Entry: COc1ccc(S(=O)(=O)NCCCNc2nccc(-n3cnc4ccccc43)n2)cc1 N

What was the test verdict on O=C1Nc2ccc(Cl)cc2/C1=C/c1ccc(OCc2ccc(F)cc2)cc1 ? N
